What follows is a collection of pIC50 values obtained with PRC2-EZH1 (WT EZH1) (Homo sapiens, UniProt Q92800).
Sequence (Q92800 whole entry): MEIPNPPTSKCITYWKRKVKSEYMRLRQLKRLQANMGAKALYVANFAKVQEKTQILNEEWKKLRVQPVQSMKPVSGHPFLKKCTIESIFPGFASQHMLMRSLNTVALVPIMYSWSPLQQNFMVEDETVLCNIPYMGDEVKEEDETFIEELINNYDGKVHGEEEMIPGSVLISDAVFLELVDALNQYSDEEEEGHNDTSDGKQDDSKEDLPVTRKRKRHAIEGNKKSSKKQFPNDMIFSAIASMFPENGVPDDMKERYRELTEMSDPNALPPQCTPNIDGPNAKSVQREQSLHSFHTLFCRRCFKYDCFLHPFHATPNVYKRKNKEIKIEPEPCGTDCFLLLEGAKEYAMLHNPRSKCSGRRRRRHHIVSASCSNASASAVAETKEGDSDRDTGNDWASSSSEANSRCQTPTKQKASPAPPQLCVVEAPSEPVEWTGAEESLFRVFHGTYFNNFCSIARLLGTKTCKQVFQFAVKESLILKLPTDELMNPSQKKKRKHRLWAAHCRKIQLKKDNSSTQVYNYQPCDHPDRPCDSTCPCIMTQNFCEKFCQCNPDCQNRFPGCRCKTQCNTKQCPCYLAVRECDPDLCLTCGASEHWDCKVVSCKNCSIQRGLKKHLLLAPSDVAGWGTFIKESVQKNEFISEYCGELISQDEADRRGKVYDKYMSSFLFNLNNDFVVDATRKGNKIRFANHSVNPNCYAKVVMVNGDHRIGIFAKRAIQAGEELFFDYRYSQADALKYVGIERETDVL
Sequence (O75530 whole entry partner): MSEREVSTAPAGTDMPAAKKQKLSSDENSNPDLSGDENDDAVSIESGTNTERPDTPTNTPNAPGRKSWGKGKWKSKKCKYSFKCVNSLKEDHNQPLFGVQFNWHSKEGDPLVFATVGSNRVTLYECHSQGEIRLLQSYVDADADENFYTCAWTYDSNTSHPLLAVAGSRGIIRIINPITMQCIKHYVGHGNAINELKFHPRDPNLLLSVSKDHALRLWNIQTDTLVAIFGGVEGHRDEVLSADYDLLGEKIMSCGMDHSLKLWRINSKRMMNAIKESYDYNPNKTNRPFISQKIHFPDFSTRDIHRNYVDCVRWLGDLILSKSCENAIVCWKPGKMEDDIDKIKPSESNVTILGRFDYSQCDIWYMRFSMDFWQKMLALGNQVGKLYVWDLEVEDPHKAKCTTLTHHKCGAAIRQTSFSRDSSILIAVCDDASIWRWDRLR
Sequence (Q15022 whole entry partner): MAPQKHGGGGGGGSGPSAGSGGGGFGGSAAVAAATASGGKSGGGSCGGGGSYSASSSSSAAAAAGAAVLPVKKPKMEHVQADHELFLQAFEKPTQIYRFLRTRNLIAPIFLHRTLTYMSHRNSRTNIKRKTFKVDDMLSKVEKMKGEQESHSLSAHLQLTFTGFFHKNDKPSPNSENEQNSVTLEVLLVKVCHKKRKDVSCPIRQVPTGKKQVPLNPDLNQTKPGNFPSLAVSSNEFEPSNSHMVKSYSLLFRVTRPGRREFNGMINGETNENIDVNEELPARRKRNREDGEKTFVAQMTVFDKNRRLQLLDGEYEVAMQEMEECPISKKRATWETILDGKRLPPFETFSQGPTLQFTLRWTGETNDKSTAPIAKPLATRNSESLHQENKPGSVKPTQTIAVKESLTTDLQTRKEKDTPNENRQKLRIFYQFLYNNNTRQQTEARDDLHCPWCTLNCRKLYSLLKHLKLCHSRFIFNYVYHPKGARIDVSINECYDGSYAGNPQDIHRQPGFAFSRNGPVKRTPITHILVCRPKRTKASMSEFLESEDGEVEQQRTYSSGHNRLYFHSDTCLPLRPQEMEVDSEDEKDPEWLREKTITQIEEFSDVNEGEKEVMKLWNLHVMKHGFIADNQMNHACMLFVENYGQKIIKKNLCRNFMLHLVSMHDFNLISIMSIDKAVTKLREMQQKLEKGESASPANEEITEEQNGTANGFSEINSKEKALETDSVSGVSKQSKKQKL
Sequence (Q09028 whole entry partner): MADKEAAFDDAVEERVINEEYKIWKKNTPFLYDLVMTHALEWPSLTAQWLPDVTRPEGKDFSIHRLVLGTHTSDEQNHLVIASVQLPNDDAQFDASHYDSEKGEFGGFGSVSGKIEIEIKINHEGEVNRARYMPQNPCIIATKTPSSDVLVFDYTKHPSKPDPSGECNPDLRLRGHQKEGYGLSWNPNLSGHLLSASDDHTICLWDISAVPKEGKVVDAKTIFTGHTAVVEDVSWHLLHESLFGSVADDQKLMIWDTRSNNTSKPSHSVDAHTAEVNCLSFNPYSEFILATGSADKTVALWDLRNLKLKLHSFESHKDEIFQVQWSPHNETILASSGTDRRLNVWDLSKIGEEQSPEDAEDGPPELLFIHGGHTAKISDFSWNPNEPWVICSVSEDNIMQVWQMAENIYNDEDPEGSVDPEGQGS
Sequence (Q6ZN18 whole entry partner): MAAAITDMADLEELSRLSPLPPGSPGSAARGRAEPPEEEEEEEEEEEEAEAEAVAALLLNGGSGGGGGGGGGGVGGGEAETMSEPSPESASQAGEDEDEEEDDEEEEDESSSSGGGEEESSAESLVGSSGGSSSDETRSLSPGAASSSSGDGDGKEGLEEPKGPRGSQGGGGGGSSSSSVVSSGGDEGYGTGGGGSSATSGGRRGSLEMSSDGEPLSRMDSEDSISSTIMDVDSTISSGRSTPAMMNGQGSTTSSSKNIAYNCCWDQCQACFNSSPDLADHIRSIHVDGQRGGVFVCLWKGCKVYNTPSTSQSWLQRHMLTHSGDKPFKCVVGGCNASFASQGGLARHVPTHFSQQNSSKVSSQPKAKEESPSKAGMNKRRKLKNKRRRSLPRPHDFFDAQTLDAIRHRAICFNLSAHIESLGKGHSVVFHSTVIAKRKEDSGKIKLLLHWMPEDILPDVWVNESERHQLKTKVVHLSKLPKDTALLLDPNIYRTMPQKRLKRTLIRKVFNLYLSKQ
Numbers only, as −log10 of the molar value.

The cases that follow already have their pIC50 on record.
CCN1CCC([C@@]2(C)Oc3c(Cl)cc(C(=O)NCc4c(C)cc(C)[nH]c4=O)c(C)c3O2)CC1
6.96
Cc1cc(C)c(CNC(=O)c2cc(Br)c3c(c2C)OC(C)(CC2CCN(C)CC2)O3)c(=O)[nH]1 (stereo not drawn)
6.96
Cc1cc(C)c(CNC(=O)c2cc(Br)c3c(c2C)O[C@@](C)(CN2CCOCC2)O3)c(=O)[nH]1
6.96

Look at each molecule and report its pIC50.
1. Cc1cc(C)c(CNC(=O)c2cc(C)c3c(c2C)O[C@@](C)([C@H]2CC[C@H](N(C)C)CC2)O3)c(=O)[nH]1 (single isomer, unassigned)
2. Cc1cc(C)c(CNC(=O)c2cc(Br)c3c(c2C)OC(C)([C@H]2CC[C@H](CN(C)C)CC2)O3)c(=O)[nH]1 (relative stereo)
3. CCc1cc(C)[nH]c(=O)c1CNC(=O)c1cc(Cl)c2c(c1C)OC(C)([C@H]1CC[C@H](N(C)C)CC1)O2 (relative stereo)

Result:
1: 8.05; 2: 6.85; 3: 7.55
